- System: Raw264.7 cells
- ASSAY COMMENT: Measurement of cell viability (MTT)
- Format: cell-based, mouse
- CONDITION: with LPS 1 μg/mL, 24 hrs, mean of three measurements, read-out: Cell viability (IC50 for cell toxicity)
What IC50 was measured for each of the following?

Consider the worked cases shown below.
COMPOUND	TGT	IC50
Cc1ccc(OC(=O)NN(c2ccccc2)S(=O)(=O)c2ccc(C)cc2)cc1 [Example 2]	Raw264.7 cells	> 10000 nM
CCc1ccc(OC(=O)NN(c2ccccc2)S(=O)(=O)c2ccc(Cl)cc2)cc1 [Example 12]	Raw264.7 cells	> 10000 nM
O=C(NN(c1ccccc1)S(=O)(=O)c1ccc(Cl)cc1)Oc1ccccc1 [Example 10]	Raw264.7 cells	> 10000 nM
CC(C)c1ccc(S(=O)(=O)N(NC(=O)Oc2ccc(Oc3ccccc3)cc2)c2ccccc2)cc1 [Example 24]	Raw264.7 cells	> 1000 nM
Cc1ccc(S(=O)(=O)N(NC(=O)Oc2ccc(OCc3ccccc3)cc2)c2ccccc2)cc1 [Example 8]	Raw264.7 cells	> 100 nM

Give IC50 for each listed item.
1. O=C(NN(c1ccccc1)S(=O)(=O)c1ccc(Cl)cc1)Oc1ccc(Oc2ccccc2)cc1 [Example 14]
2. COc1ccc(S(=O)(=O)N(NC(=O)Oc2ccc(OCc3ccccc3)cc2)c2ccccc2)cc1 [Example 4]
3. Cc1ccc(S(=O)(=O)N(NC(=O)Oc2ccc3c(c2)CCC3)c2ccccc2)cc1 [Example 25]
4. CC(C)(C)c1ccc(S(=O)(=O)N(NC(=O)Oc2ccc(Oc3ccccc3)cc2)c2ccccc2)cc1 [Example 23]
5. CCOc1ccc(OC(=O)NN(c2ccccc2)S(=O)(=O)c2ccc(OC)cc2)cc1 [Example 5]
6. O=C(NN(c1ccccc1)S(=O)(=O)c1ccc(Cl)cc1)Oc1ccc2c(c1)CCC2 [Example 26]
7. COc1ccccc1OC(=O)NN(c1ccccc1)S(=O)(=O)c1ccc(C)cc1 [Example 3]
8. CC(C)(C)c1ccc(S(=O)(=O)N(NC(=O)Oc2ccc(OCc3ccccc3)cc2)c2ccccc2)cc1 [Example 22]

Response:
["> 10000 nM", "> 1000 nM", "> 1000 nM", "> 1000 nM", "> 100 nM", "> 1000 nM", "> 100 nM", "> 100 nM"]

Prompt: Annotate the compound CCc1ccc(OC(=O)NN(c2ccccc2)S(=O)(=O)c2ccc(OC)cc2)cc1 [Example 7] with its measured IC50.
Response: > 100 nM

---

What IC50 was measured for each of the following?
- Test system: PGE2 production
- ASSAY COMMENT: Inhibitory activity on PGE2 production in LPS-treated Raw264.7 cells (PGE2 immunoassay)
- Type: cell-based, mouse
- CONDITION: LPS 1 μg/mL, mean of three measurements, read-out: Inhibition of PGE2 production IC50
Numbers only, in nM.

Give IC50 for each listed item.
1. O=C(NN(c1ccccc1)S(=O)(=O)c1ccc(C(F)(F)F)cc1)Oc1ccc2c(c1)CCC2
2. CCc1ccc(OC(=O)NN(c2ccccc2)S(=O)(=O)c2ccc(Cl)cc2)cc1
3. COc1ccccc1OC(=O)NN(c1ccccc1)S(=O)(=O)c1ccc(Cl)cc1
4. CC(C)(C)c1ccc(S(=O)(=O)N(NC(=O)Oc2ccc(Oc3ccccc3)cc2)c2ccccc2)cc1
5. O=C(NN(c1ccccc1)S(=O)(=O)c1ccc(Cl)cc1)Oc1ccc(OCc2ccccc2)cc1
6. CC(C)(C)c1ccc(S(=O)(=O)N(NC(=O)Oc2ccc(OCc3ccccc3)cc2)c2ccccc2)cc1
7. Cc1ccc(S(=O)(=O)N(NC(=O)Oc2ccc(OCc3ccccc3)cc2)c2ccccc2)cc1

Response:
1. 55.8
2. 3.7
3. 3.52
4. 99.6
5. 3.42
6. 56.9
7. 32.6

Give IC50 for each listed item.
1. Cc1ccc(OC(=O)NN(c2ccccc2)S(=O)(=O)c2ccc(C)cc2)cc1
2. O=C(NN(c1ccccc1)S(=O)(=O)c1ccc(C(F)(F)F)cc1)Oc1ccc(OCc2ccccc2)cc1
3. Cc1ccc(S(=O)(=O)N(NC(=O)Oc2ccc3c(c2)CCC3)c2ccccc2)cc1
4. COc1ccc(S(=O)(=O)N(NC(=O)Oc2ccc(Oc3ccccc3)cc2)c2ccccc2)cc1

Response:
1010
47.1
66.7
17.1

Give IC50 for each listed item.
1. COc1ccc(S(=O)(=O)N(NC(=O)Oc2ccc(OCc3ccccc3)cc2)c2ccccc2)cc1
2. O=C(NN(c1ccccc1)S(=O)(=O)c1ccc(Cl)cc1)Oc1ccccc1
3. CCOc1ccc(OC(=O)NN(c2ccccc2)S(=O)(=O)c2ccc(Cl)cc2)cc1

Response:
1: 50; 2: 5.42; 3: 5.02
